Target: […]F508-CFTR (Homo sapiens, UniProt P13569, DEL508-508)
Sequence (P13569 with tags, fused parts or gaps DEL508-508): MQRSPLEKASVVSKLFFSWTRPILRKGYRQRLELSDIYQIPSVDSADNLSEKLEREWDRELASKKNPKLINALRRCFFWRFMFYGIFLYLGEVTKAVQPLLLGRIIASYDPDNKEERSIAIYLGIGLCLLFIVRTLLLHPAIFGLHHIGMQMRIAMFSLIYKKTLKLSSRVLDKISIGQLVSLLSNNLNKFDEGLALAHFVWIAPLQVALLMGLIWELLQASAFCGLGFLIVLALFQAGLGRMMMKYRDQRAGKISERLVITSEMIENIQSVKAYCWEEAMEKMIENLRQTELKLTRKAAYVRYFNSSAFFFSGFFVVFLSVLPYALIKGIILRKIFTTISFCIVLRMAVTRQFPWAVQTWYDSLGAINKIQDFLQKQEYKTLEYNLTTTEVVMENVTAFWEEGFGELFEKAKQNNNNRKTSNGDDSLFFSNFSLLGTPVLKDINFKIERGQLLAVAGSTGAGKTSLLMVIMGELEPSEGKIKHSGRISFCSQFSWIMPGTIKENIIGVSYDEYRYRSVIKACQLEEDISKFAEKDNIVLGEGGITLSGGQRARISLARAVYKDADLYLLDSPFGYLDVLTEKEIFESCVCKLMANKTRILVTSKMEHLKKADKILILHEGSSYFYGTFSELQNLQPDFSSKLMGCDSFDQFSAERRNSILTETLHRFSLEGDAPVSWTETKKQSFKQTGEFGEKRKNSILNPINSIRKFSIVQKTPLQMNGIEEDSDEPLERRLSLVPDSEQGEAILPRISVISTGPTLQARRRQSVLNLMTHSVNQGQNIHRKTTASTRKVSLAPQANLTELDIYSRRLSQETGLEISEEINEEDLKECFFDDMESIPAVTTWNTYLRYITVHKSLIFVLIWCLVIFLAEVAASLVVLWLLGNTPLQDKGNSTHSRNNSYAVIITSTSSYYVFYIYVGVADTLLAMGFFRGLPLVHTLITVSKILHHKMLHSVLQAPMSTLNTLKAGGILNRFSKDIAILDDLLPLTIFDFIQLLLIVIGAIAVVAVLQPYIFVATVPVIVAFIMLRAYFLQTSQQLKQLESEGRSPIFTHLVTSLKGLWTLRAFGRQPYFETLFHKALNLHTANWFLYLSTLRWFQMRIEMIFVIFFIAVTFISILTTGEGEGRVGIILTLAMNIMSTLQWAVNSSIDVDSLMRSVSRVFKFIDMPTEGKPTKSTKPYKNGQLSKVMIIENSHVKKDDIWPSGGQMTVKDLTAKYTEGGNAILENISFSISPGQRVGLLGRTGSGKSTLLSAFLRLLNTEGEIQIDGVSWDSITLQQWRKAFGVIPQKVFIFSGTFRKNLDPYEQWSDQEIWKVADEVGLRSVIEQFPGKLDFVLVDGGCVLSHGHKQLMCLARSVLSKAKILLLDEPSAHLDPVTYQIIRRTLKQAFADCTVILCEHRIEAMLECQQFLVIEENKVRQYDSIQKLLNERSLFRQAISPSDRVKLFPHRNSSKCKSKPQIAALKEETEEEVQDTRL
Assay: Assay results of Table 3: ΔF508-CFTR modulation, membrane potential optical assay (assay format not stated)
Settings: potency range; NIH3T3 mouse fibroblasts stably expressing […]F508-CFTR (optical assays)
pEC50: −log10 of the molar value.
Measured pEC50 values are reported for all entries that follow.
measurement_type: pEC50

# compound, measurement_type, result
measured = [
    ("C#CCN(C)c1nc(C(N)=O)cc(-c2ccccc2)n1 [Compound 204]", "pEC50", "5.30 to 6.00"),
    ("CCN(CC)c1nc(C(N)=O)cc(-c2ccccc2F)n1 [Compound 94]", "pEC50", "5.30 to 6.00"),
    ("COc1ccccc1-c1cc(C(N)=O)nc(N(C)C)n1 [Compound 208]", "pEC50", "< 5.30"),
    ("CCN(CC)c1nc(C(N)=O)cc(-c2ccccc2)n1 [Compound 119]", "pEC50", "> 6.00"),
    ("CNC(=O)c1cc(-c2ccccc2)nc(NCC2CC2)n1 [Compound 41]", "pEC50", "< 5.30"),
    ("CCN(CC)c1nc(C(N)=O)cc(-c2ccc(C(F)(F)F)cc2)n1 [Compound 10]", "pEC50", "< 5.30"),
    ("NC(=O)c1cc(-c2cc(Cl)ccc2Cl)nc(N2CCCCC2)n1 [Compound 202]", "pEC50", "5.30 to 6.00"),
    ("CCCN(CC1CC1)c1nc(C(=O)N(C)C)cc(-c2ccccc2)n1 [Compound 150]", "pEC50", "5.30 to 6.00"),
]

* * *

Target: […]F508-CFTR (Homo sapiens, UniProt P13569, DEL508-508)
Assay: Assay results of Table 3: ΔF508-CFTR modulation, membrane potential optical assay (assay format not stated)
Settings: potency range; NIH3T3 mouse fibroblasts stably expressing […]F508-CFTR (optical assays)
measurement_type: EC50

# entry_smiles, test_target, measurement_type, result
data = [
    ("CCN(CC)c1nc(C(N)=O)cc(-c2cccc(OC(F)(F)F)c2)n1", "[…]F508-CFTR (Homo sapiens, UniProt P13569, DEL508-508)", "EC50", "< 1 µM"),
    ("CCN(CC)c1nc(C(N)=O)cc(-c2ccc(C)s2)n1", "[…]F508-CFTR (Homo sapiens, UniProt P13569, DEL508-508)", "EC50", "1 to 5 µM"),
    ("COc1ccc(C(C)C)cc1-c1cc(C(N)=O)nc(N2CCCCC2)n1", "[…]F508-CFTR (Homo sapiens, UniProt P13569, DEL508-508)", "EC50", "> 5 µM"),
    ("CN(CC#N)c1nc(C(N)=O)cc(-c2ccccc2)n1", "[…]F508-CFTR (Homo sapiens, UniProt P13569, DEL508-508)", "EC50", "> 5 µM"),
    ("COc1ccccc1-c1cc(C(N)=O)nc(N2CC=CCC2)n1", "[…]F508-CFTR (Homo sapiens, UniProt P13569, DEL508-508)", "EC50", "> 5 µM"),
    ("NC(=O)c1cc(-c2ccccc2)nc(N2CCSC2)n1", "[…]F508-CFTR (Homo sapiens, UniProt P13569, DEL508-508)", "EC50", "> 5 µM"),
    ("C=CCN(CC=C)c1nc(C(N)=O)cc(-c2ccccc2)n1", "[…]F508-CFTR (Homo sapiens, UniProt P13569, DEL508-508)", "EC50", "1 to 5 µM"),
    ("CCCCN(CCCC)c1nc(C(N)=O)cc(-c2ccccc2)n1", "[…]F508-CFTR (Homo sapiens, UniProt P13569, DEL508-508)", "EC50", "< 1 µM"),
    ("CCCCN(CCC)c1nc(C(N)=O)cc(-c2ccccc2)n1", "[…]F508-CFTR (Homo sapiens, UniProt P13569, DEL508-508)", "EC50", "< 1 µM"),
]

* * *

Measured pEC50 values are reported for all entries that follow.
Target: […]F508-CFTR (Homo sapiens, UniProt P13569, DEL508-508)
Assay: Assay results of Table 3: ΔF508-CFTR modulation, membrane potential optical assay (assay format not stated)
Settings: potency range; NIH3T3 mouse fibroblasts stably expressing […]F508-CFTR (optical assays)
pEC50: −log10 of the molar value.
measurement_type: pEC50

# compound, measurement_type, result
measured = [
    ("CCCCN(CCO)c1nc(C(N)=O)cc(-c2ccccc2)n1 [Compound 19]", "pEC50", "5.30 to 6.00"),
    ("CCN(CC)c1nc(C(=O)NCc2ccccc2)cc(-c2ccccc2)n1 [Compound 97]", "pEC50", "< 5.30"),
    ("Cc1csc(-c2cc(C(N)=O)nc(N3CCCCC3)n2)c1 [Compound 70]", "pEC50", "5.30 to 6.00"),
    ("CCN(CC)c1nc(C(N)=O)cc(-c2ccccc2C)n1 [Compound 61]", "pEC50", "5.30 to 6.00"),
    ("CC(C)OC(=O)c1cccc(-c2cc(C(N)=O)nc(N3CCCCC3)n2)c1 [Compound 17]", "pEC50", "5.30 to 6.00"),
    ("CCN(CC)C(=O)C1CCCN(c2nc(C(N)=O)cc(-c3ccccc3)n2)C1 (stereo not drawn) [Compound 177]", "pEC50", "< 5.30"),
    ("CCN(CC)c1nc(C(N)=O)cc(-c2ccc(F)c(C)c2)n1 [Compound 131]", "pEC50", "5.30 to 6.00"),
    ("COc1cccc(-c2cc(C(N)=O)nc(N3CCCCCC3)n2)c1 [Compound 161]", "pEC50", "5.30 to 6.00"),
    ("CNC(=O)c1cc(-c2ccccc2)nc(N2CCCCC2)n1 [Compound 232]", "pEC50", "5.30 to 6.00"),
]

* * *

Measured EC50 values are reported for all entries that follow.
Molecular target: […]F508-CFTR (Homo sapiens, UniProt P13569, DEL508-508)
Experiment: Assay results of Table 3: ΔF508-CFTR modulation, membrane potential optical assay (assay format not stated)
Conditions: potency range; NIH3T3 mouse fibroblasts stably expressing […]F508-CFTR (optical assays)

# entry_smiles, test_target, EC50
data = [
    ("CCNC(=O)c1cc(-c2ccccc2)nc(N(CC)CC)n1", "[…]F508-CFTR (Homo sapiens, UniProt P13569, DEL508-508)", "1 to 5 µM"),
    ("CCCCCCN(C)c1nc(C(N)=O)cc(-c2ccccc2)n1", "[…]F508-CFTR (Homo sapiens, UniProt P13569, DEL508-508)", "1 to 5 µM"),
    ("CC(C)CN(CC(C)C)c1nc(C(N)=O)cc(-c2ccccc2)n1", "[…]F508-CFTR (Homo sapiens, UniProt P13569, DEL508-508)", "1 to 5 µM"),
    ("COc1cccc(-c2cc(C(N)=O)nc(N3CCCCC3)n2)c1F", "[…]F508-CFTR (Homo sapiens, UniProt P13569, DEL508-508)", "> 5 µM"),
    ("CN(Cc1cccnc1)c1nc(C(N)=O)cc(-c2ccccc2)n1", "[…]F508-CFTR (Homo sapiens, UniProt P13569, DEL508-508)", "> 5 µM"),
    ("CCN(CC)c1nc(C(N)=O)cc(-c2cc(F)ccc2OC)n1", "[…]F508-CFTR (Homo sapiens, UniProt P13569, DEL508-508)", "< 1 µM"),
    ("CCCN(CC1CC1)c1nc(C(N)=O)cc(-c2ccc(OC)cc2)n1", "[…]F508-CFTR (Homo sapiens, UniProt P13569, DEL508-508)", "1 to 5 µM"),
    ("CCCNc1nc(C(N)=O)cc(-c2ccccc2)n1", "[…]F508-CFTR (Homo sapiens, UniProt P13569, DEL508-508)", "> 5 µM"),
    ("CCCCN(Cc1ccccc1)c1nc(C(N)=O)cc(-c2ccccc2)n1", "[…]F508-CFTR (Homo sapiens, UniProt P13569, DEL508-508)", "1 to 5 µM"),
]

* * *

Measured EC50 values are reported for all entries that follow.
Target: […]F508-CFTR (Homo sapiens, UniProt P13569, DEL508-508)
Test: Assay results of Table 3: ΔF508-CFTR modulation, membrane potential optical assay (assay format not stated)
Details: potency range; NIH3T3 mouse fibroblasts stably expressing […]F508-CFTR (optical assays)
measurement_type: EC50

# compound, measurement_type, result
rows = [
    ("NC(=O)c1cc(-c2ccccc2)nc(N2CCC(Cc3ccccc3)CC2)n1 [Compound 37]", "EC50", "> 5 µM"),
    ("CCN(CC)c1nc(C(N)=O)cc(-c2ccc(F)cc2F)n1 [Compound 107]", "EC50", "< 1 µM"),
    ("NC(=O)c1cc(-c2ccccc2)nc(N2CCCC(CO)C2)n1 (stereo not drawn) [Compound 43]", "EC50", "> 5 µM"),
    ("CCN(CC)c1nc(C(N)=O)cc(-c2cc(Cl)ccc2OC)n1 [Compound 12]", "EC50", "< 1 µM"),
    ("NC(=O)c1cc(-c2ccccc2)nc(N2CCC3CCCCC3C2)n1 (stereo not drawn) [Compound 148]", "EC50", "1 to 5 µM"),
    ("CCN(CC)c1nc(C(N)=O)cc(-c2cccc(C)c2)n1 [Compound 56]", "EC50", "1 to 5 µM"),
    ("CCN(CC)c1nc(C(N)=O)cc(-c2ccc(C)c(C)c2)n1 [Compound 207]", "EC50", "1 to 5 µM"),
    ("CN(C)c1nc(C(N)=O)cc(-c2ccccc2)n1 [Compound 9]", "EC50", "> 5 µM"),
    ("COc1ccc(F)cc1-c1cc(C(N)=O)nc(N2CCCCC2)n1 [Compound 137]", "EC50", "1 to 5 µM"),
]
